Some compounds, each annotated with its measured normalized growth.
Assay: chemical genetic growth profiling, strain panel (AID 1159580);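 note: tested at 20 µM; growth read once vehicle control cultures reached saturation at 30 °C; 1 = growth at the plate median or of vehicle wells; lower values mean less growth of the strain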
Settings: S. cerevisiae deletion strains, growth OD, locus YBR021W, strain FUR4, hits give low values
The whole screen tested about 5,500 compounds, of which about 2,000 (36%) were called active. Not shown: some 18% with an inconclusive outcome. This is one part of the list.
Response field accepts a number only; no unit should be typed.

Incoming: May I ask what normalized growth has been recorded for Cc1cc(=O)[nH]c(=S)[nH]1 ?
Outgoing: 0.986

Incoming: Bench note: what normalized growth did CCCc1cc(=O)[nH]c(=S)[nH]1 show?
Outgoing: 0.987

Incoming: Reported normalized growth, compound NNCc1cccc(O)c1 : ____
Outgoing: 1.07

###

Experiment: chemical genetic growth profiling, strain panel (AID 1159580)
Details: S. cerevisiae deletion strains, growth OD, locus YJR075W, strain HOC1, hits give low values
In all, about 5,500 compounds went through this assay and about 2,000 (36%) were called active. Inconclusive results (about 18%) are left out. The list shows a part of the results.
endpoint: normalized growth
Please reply with the value in numeric form only.

1) Nc1ncnc2c1ncn2C1CCCO1 (stereo unspecified) | 1.02
2) Cc1onc(-c2c(Cl)cccc2Cl)c1NC(=O)O/N=C\c1ccc(N(C)C)cc1 | 1.04
3) C=Cc1c(SC)sc(C(=O)O)c1C | 0.636

Incoming: Please look up its normalized growth: CN(C)CCCN1c2ccccc2Sc2ccc(C(F)(F)F)cc21
Outgoing: 1.01

Incoming: What value of normalized growth has been reported for the following compound? N/C(=N/OC(=O)c1ccccc1)c1ccc(-c2csnn2)cc1
Outgoing: 1.02

Incoming: What does the record list as normalized growth for CCC(C)C(=O)OC1[C@@H]2CC3=C4CC(=O)O[C@@H](c5ccoc5)[C@]4(C)CCC3[C@@](C)(C2=O)[C@@H](CC(=O)OC)C1(C)C (stereo partly specified) ?
Outgoing: 1.01

Incoming: Suppose we examine the compound O=C1c2ccccc2C(=O)N1CN(CCSc1ccccc1)CN1C(=O)c2ccccc2C1=O ; what normalized growth value has been reported?
Outgoing: 0.981

Incoming: Could you share which normalized growth value was measured for CCC(=O)c1ccc2c(c1)N(CCCN(C)C)c1ccccc1S2 ?
Outgoing: 0.985

Incoming: Recorded normalized growth for CN(C)C(=O)Oc1cccc([N+](C)(C)C)c1 , please?
Outgoing: 1.02

Incoming: What measured normalized growth goes with CC(CCc1ccccc1)NCC(O)c1ccc(O)c(C(N)=O)c1 (stereo unspecified) ?
Outgoing: 1

Incoming: Bench note: what normalized growth did CCCOc1ccc2nc(NC(=O)OC)[nH]c2c1 show?
Outgoing: 0.992

###

Assay: chemical genetic growth profiling, strain panel (AID 1159580)
Conditions: S. cerevisiae deletion strains, growth OD, locus YLR262C, strain YPT6, hits give low values
Hit rate of the full screen: of about 5,500 compounds, about 2,000 (36%) were called active. Not shown: some 18% with an inconclusive outcome. This is one part of the list.
Listed next: entries and their corresponding normalized growth.
Give the figure only, with no unit attached.

1. CC(CCc1ccccc1)NCC(O)c1ccc(O)c(C(N)=O)c1 (stereo not given) | 1.04
2. COc1c(C)c2c(c(C)c1Cl)Oc1c(Cl)c(OC)c(Cl)c(C)c1C(=O)O2 | 1.02
3. CC(CCC(=O)O)[C@H]1CCC2C3CC[C@@H]4CC(=O)CC[C@]4(C)C3C=C[C@@]21C (stereo not given in full) | 0.895
4. C[C@H](CCC(=O)O)[C@H]1CCC2C3C(=O)CC4CC(=O)CC[C@]4(C)C3CC(=O)[C@@]21C (stereo not given in full) | 1.05
5. CS(=O)(=O)Nc1ccc([N+](=O)[O-])cc1Oc1ccccc1 | 0.75
6. CC(C)(C)NCC(O)c1ccc(O)c(CO)c1 (stereo not given) | 1.04

Now look at this entry.
Incoming: What value of normalized growth has been reported for the following compound? COC(=O)c1c(OC)cc2c(c1C)Oc1c(Cl)c(O)c(Cl)c(C)c1C(=O)O2
Outgoing: 0.795

###

Assay: chemical genetic growth profiling, strain panel (AID 1159580)
Settings: S. cerevisiae deletion strains, growth OD, locus YLR330W, strain CHS5, hits give low values
The campaign covered roughly 5,500 compounds. About 2,000 (36%) were called active. About 18% were inconclusive and are not listed. The list shows a part of the results.
In this section we review reported normalized growth values for a set of compounds.
Lab note: jot the number down without any unit.

1) CC1=CC(=O)c2ccccc2C1=O | 0.0494
2) CS(=O)(=O)c1ccc([C@@H](O)[C@@H](CO)NC(=O)C(Cl)Cl)cc1 | 0.982
3) CNCCCC12CCC(c3ccccc31)c1ccccc12 | 0.993
4) NC1=NCCN1CC(=O)O | 1
5) CC12CCC3C(CC3(C)C)C(C)(CCC1=O)O2 (configuration not stated) | 1.02

Incoming: Field request: normalized growth | item: C[C@H]1c2cccc(O)c2C(O)=C2C(=O)[C@]3(O)C(O)=C(C(N)=O)C(=O)[C@@H](N(C)C)[C@@H]3[C@@H](O)[C@@H]21
Outgoing: 0.979

Incoming: Find the recorded normalized growth belonging to O=C(O)c1cc(O)c2c(c1)[C@@H]([C@H]1c3cc(C(=O)O)cc(O)c3C(=O)c3c(O[C@H]4O[C@H](CO)[C@@H](O)[C@H](O)[C@H]4O)cccc31)c1cccc(O[C@H]3O[C@H](CO)[C@@H](O)[C@H](O)[C@H]3O)c1C2=O and report it.
Outgoing: 1.01

###

Examples of compounds with documented normalized growth follow.
Assay: chemical genetic growth profiling, strain panel (AID 1159580);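 note: tested at 20 µM; growth read once vehicle control cultures reached saturation at 30 °C; 1 = growth at the plate median or of vehicle wells; lower values mean less growth of the strain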
Settings: S. cerevisiae deletion strains, growth OD, locus YNL197C, strain WHI3, hits give low values
The campaign covered roughly 5,500 compounds. About 2,000 (36%) were called active. Inconclusive results (about 18%) are left out. This is one part of the list.

1. COc1ccc([C@@H]2Sc3ccccc3N(CCN(C)C)C(=O)[C@@H]2OC(C)=O)cc1 | 1.1 (inactive)
2. CC(=O)NNC(=O)N1Cc2ccccc2Oc2ccc(Cl)cc21 | 1.01 (inactive)
3. CCC(=O)c1ccc2c(c1)N(CCCN(C)C)c1ccccc1S2 | 1.05 (inactive)
4. CN(C)CCCN1c2ccccc2Sc2ccc(C(F)(F)F)cc21 | 1.03 (inactive)
5. Cc1[nH]c2ccc(O)cc2c1CCN | 0.987 (inactive)

Could you now consider this next compound?
Incoming: For CN(C)CCCN1c2ccccc2CCc2ccccc21 , what is its reported normalized growth?
Outgoing: 1 (inactive)

###

# normalized growth values compiled below
Assay: chemical genetic growth profiling, strain panel (AID 1159580);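 note: tested at 20 µM; growth read once vehicle control cultures reached saturation at 30 °C; 1 = growth at the plate median or of vehicle wells; lower values mean less growth of the strain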
Conditions: S. cerevisiae deletion strains, growth OD, locus YNL248C, strain rpa49, hits give low values
Hit rate of the full screen: of about 5,500 compounds, about 2,000 (36%) were called active. Not shown: some 18% with an inconclusive outcome. This is one part of the list.
Lab note: jot down the number only; don't add units.

Check out these entries, answers already filled in.
1) CC(=O)O[C@H]1CC[C@@]2(C)C(C[C@@H](OC(C)=O)[C@@]3(C)C4=CC(=O)O[C@@H](c5ccoc5)[C@]4(C)CCC23)C1(C)C (stereo partly specified) | 1.01
2) CN(C)[C@@H]1C(=O)C(C(N)=O)=C(O)[C@@]2(O)C(=O)C3=C(O)c4c(O)ccc(Cl)c4[C@@](C)(O)[C@H]3C[C@@H]12 | 0.993
3) CC12CCC3C(CC3(C)C)C(C)(CCC1=O)O2 (stereo unspecified) | 1.04
4) CC1=CCCC2C1(C)CCC(C)C2(C)CC/C(C)=C/C[n+]1cn(C)c2c(N)ncnc21 (stereo unspecified) | 0.98
5) CC(=O)Nc1ccc(S(=O)(=O)Nc2onc(C)c2C)cc1 | 1.02

Incoming: Please report the recorded normalized growth for O=C(OOC(=O)c1ccccc1)c1ccccc1 .
Outgoing: 0.957

Incoming: Given the entry Cc1nc(N)cc(C[n+]2csc(CCO)c2C)n1 , report its measured normalized growth.
Outgoing: 0.948

Incoming: Need normalized growth, item COc1ccccc1OCC(O)CO (stereo unspecified)
Outgoing: 1.04

Incoming: For the compound shown here, CC(C)CCCC(C)C1CCC2C3CC(=O)[C@H]4C[C@@H](O)CC[C@]4(C)C3CC[C@]12C (stereo partly specified) , give the reported normalized growth.
Outgoing: 1

Incoming: Look up normalized growth for this compound: O=P1(NCCCl)OCCCN1CCCl (stereo unspecified)
Outgoing: 0.946

###

Assay: chemical genetic growth profiling, strain panel (AID 1159580);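 note: tested at 20 µM; growth read once vehicle control cultures reached saturation at 30 °C; 1 = growth at the plate median or of vehicle wells; lower values mean less growth of the strain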
Details: S. cerevisiae deletion strains, growth OD, locus YDR297W, strain sur2, hits give low values
About 2,000 (36%) of roughly 5,500 compounds were called active. Roughly 18% stayed inconclusive and do not appear here. The list shows a part of the results.
Rule: normalized growth below 1 gives TRUE, anything at or above gives FALSE.

1) CC(=O)O[C@H]1CCC2(C)C3=C(CCC2C1(C)C)[C@@]1(C)CC[C@@H](C(C)CCC=C(C)C)[C@]1(C)CC3 (stereo partly drawn) | FALSE
2) CC(=O)Nc1ccc(S(=O)(=O)Nc2onc(C)c2C)cc1 | TRUE
3) COc1cc(C/C=C/c2ccccc2)c(OC)cc1O | TRUE
4) CC(C)c1ccc2c(c1)CCC1C(C)(C(N)=O)CCCC21C (stereo not drawn) | TRUE

Incoming: Lab note: confirm whether the reported normalized growth for this compound is below 1, equality not counting. compound: COC1CC2CCC(C)C(O)(O2)C(=O)C(=O)N2CCCCC2C(=O)OC(C(C)CC2CCC(O)C(OC)C2)CC(=O)C(C)/C=C(\C)C(O)C(OC)C(=O)C(C)CC(C)/C=C/C=C/C=C/1C (stereo not drawn)
Outgoing: TRUE

Incoming: Quick check: normalized growth of CC(C)=CCCC(C)[C@@H]1CC[C@]2(C)C3=C(CC[C@@]12C)C1(C)CC[C@H](O)C(C)(C)C1CC3 (stereo partly drawn) under 1?
Outgoing: FALSE

Incoming: Check if normalized growth falls below 1 for Cc1cc(=O)oc2cc(O)cc(O)c12 .
Outgoing: TRUE

Incoming: I wonder whether CC(=O)N[C@@H](Cc1c[nH]c2ccccc12)C(N)=O has normalized growth below 1. Can you tell?
Outgoing: FALSE

Incoming: State whether 1 exceeds normalized growth recorded for CN(C)CCCN1c2ccccc2Sc2ccc(Cl)cc21 .
Outgoing: TRUE

Incoming: Problem: For the compound CC1=CC(=O)c2c(O)cccc2C1=O , is normalized growth under 1?
Outgoing: TRUE
